biological target: Nuclear receptor subfamily 1 group I member 2 (Homo sapiens); test: ATG_PXR_TRANS: Attagene TRANS-FACTORIAL HepG2 Assay for human Pregnane X Receptor (PXR) (AID 2283008)
Records with an inconclusive call do not appear. Calls of active or inactive are those of the source. The calls were made as follows: active = hit-call score of the fitted dose curve at least 0.9, where 1 is the maximum; inconclusive = response in the unintended direction; inactive = score below 0.9.
measurementLabel: outcome

Query: outcome; subject: `CCCCCCCCOC(=O)c1ccc(O)cc1`
inactive

I'd like to know its outcome. The molecule in question is `OC[C@H]1O[C@@H](O[C@H]2[C@H](O)[C@@H](O)[C@H](O)O[C@@H]2CO)[C@H](O)[C@@H](O)[C@H]1O`
inactive

Please look up its outcome: `Nc1ccn([C@H]2CC[C@@H](CO)O2)c(=O)n1`
inactive

====

target: Estrogen receptor (Homo sapiens) (UniProt P03372); experiment: OT_ERa_GFPERaERE_0480: Odyssey Thera (OT) 8-hour HeLa Transcription Induction Assay for Estrogen Receptor (AID 2283381)
Sequence (P03372 whole entry, looked up): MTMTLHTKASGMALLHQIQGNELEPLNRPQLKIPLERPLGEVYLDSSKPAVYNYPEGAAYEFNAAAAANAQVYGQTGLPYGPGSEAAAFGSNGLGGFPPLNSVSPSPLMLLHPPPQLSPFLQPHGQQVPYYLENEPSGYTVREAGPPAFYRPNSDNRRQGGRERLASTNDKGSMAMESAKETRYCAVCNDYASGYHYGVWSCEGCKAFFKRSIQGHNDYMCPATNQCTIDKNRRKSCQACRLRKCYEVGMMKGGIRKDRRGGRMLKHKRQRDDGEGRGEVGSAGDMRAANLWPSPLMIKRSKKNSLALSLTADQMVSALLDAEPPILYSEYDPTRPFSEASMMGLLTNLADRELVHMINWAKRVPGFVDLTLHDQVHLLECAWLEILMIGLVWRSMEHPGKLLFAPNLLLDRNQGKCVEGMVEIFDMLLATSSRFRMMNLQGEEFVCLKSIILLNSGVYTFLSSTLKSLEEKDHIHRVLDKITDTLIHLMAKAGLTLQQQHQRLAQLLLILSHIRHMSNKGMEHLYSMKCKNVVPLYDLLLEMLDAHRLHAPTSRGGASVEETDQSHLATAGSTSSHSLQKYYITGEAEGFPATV
Activity calls are given as the source filed them. The calls were made as follows: active = hit-call score of the fitted dose curve at least 0.9, where 1 is the maximum; inactive = score below 0.9.
Hi there, use one of these labels in your reply, thanks! active, inactive

Reference set (10 entries):
Short answer needed: outcome of this test for `CCCCCCCCCCCCS` ?
inactive

Identify the outcome logged in this assay for the molecule shown: `COC(=O)c1cccc(C(=O)OC)c1`
inactive

Kindly provide the recorded test outcome for the following molecule: CCC(C)(CCCC(C)C)OC(C)=O (centres undefined)
inactive

What outcome does the record of this test show for `COc1ccc(OC)cc1` ?
inactive

Name the outcome recorded for `CCCO[Si](OCCC)(OCCC)OCCC` in the assay.
inactive

Hi team, can someone confirm the assay call for CC(CCO)CC(C)(C)C (centres undefined) ?
inactive

What did the test return for CC(O)CNCC(C)O (centres undefined) ?
active

Please let me know the test result on file for `CC(=O)c1ccc(O)cc1` .
inactive

Please state the recorded outcome for this molecule: `CCCCCCCCOC(=O)c1ccc(O)cc1`
active

Would you mind telling me which call this test gave `NC(N)=S` ?
inactive

New cases:
Give the logged outcome of this assay for the following molecule: `NC(=O)c1cccnc1`
inactive

Tell me the recorded outcome of this test for `CNC(=C[N+](=O)[O-])NCCSCc1ccc(CN(C)C)o1` .
inactive

Which outcome was assigned to `CCCCCCCCCOS(=O)(=O)O` in this test?
inactive

So what was the verdict on `CC1=CCC(=C(C)C)CC1` in this test?
inactive

Look up the recorded call for CCC(C)C1CCCCC1=O (centres undefined) in this test.
inactive

Status in this test for `CCCCC/C=C\C=C\C(=O)OCC` ?
active

Tell me the assay call for CCC(C)(C)C1CCC(OC)CC1 (centres undefined) please.
inactive

Write down the call the test reported for this molecule. Item: `CCCc1ccc(N)cc1`
inactive

Test call, this molecule: `CC(C)C(=O)c1ccccc1`
inactive

====

read-out: Transforming growth factor beta 1 (TGFb1), TGFB1 (gene 7040); test: BSK_BE3C_TGFb1: BioMAP Diversity Plus: BE3C Assay for Transforming growth factor beta 1 (TGFb1) Biomarker Activity (AID 2283036); details: primary human bronchial epithelial cells; actives raise or lower the signal
The source made the active and inactive calls. Rule for the calls: active = hit-call score of the fitted dose curve at least 0.9, where 1 is the maximum; inactive = score below 0.9.
Assign a class; possible classes are y (active), n (inactive)

Recorded call for `OCCN1CCOCC1` ?
n

Tell me the recorded outcome of this test for `CCOC(=O)C=Cc1ccccc1` .
n

Could you check what this test reported for `C=C1CC/C=C(\C)CC[C@@H]2[C@@H]1CC2(C)C` ?
n

What outcome does the record of this test show for `C=CC(=O)OCC(CO)(COC(=O)C=C)COC(=O)C=C` ?
y

Each molecule tested received a call. Report the one for `O=C1OC2(c3ccc(O)cc3Oc3cc(O)ccc32)c2ccccc21` .
n

Next:
Outcome? CC(C)Cc1ccc(C(C)C(=O)O)cc1 (stereo not drawn)
n

Field: outcome | Entry: `C=C(C)C(N)=O`
n

Record lookup: outcome of this test for `CCC(=O)OCC=Cc1ccccc1` ?
n

====

Assay: ATG_NRF2_ARE_CIS: Attagene CIS-FACTORIAL HepG2 Assay for human Nuclear Factor Erythroid 2 Related Factor 2 (NFR2) response to Antioxidant Response Elements (ARE) (AID 2282992)
Conditions: HepG2 Attagene ARE/NRF2 reporter, transcription factor activity; actives raise or lower the signal
Procedure: ATG_CIS is a cell-based, multiplexed-readout assay that uses HepG2, a human liver cell line, with measurements taken at 24 hours after chemical dosing in a 24-well plate.ATG_NRF2_ARE_CIS is one of 52 assay component(s) measured or calculated from the ATG_CIS assay. […] This assay endpoint, ATG_NRF2_ARE_CIS, was analyzed with bidirectional fitting relative to DMSO as the negative control and baseline of activity. […]
Active and inactive are the calls of the source. The calls were made as follows: active = hit-call score of the fitted dose curve at least 0.9, where 1 is the maximum; inactive = score below 0.9.
Outcome field: choose from true (1) for active, false (0) for inactive

Recorded results for 3 molecules are shown here.
GET /call?item= `CC(=N[Si](C)(C)C)O[Si](C)(C)C` returns the recorded outcome of this test.
false (0)

Assay outcome for `CCCCCCCCSCc1cc(C)c(O)c(CSCCCCCCCC)c1` : what was it?
false (0)

Kindly provide the recorded test outcome for the following molecule: `C1COCO1`
false (0)

Further cases:
How did this test come out for `CCNC(=S)NCC` ?
false (0)

Hi team, can someone confirm the assay call for `OCC=Cc1ccccc1` ?
true (1)

# lookup: test call for `Nc1ccc(O)c(N)c1`
true (1)

For `CN(C)c1ccc(C=O)cc1` , which call appears in the assay record?
false (0)

====

read-out: CD38, CD38 (gene 952); experiment: BSK_SAg_CD38: BioMAP Diversity Plus: SAg Assay for CD38 Biomarker Activity (AID 2283087); settings: primary human HUVEC with PBMC; actives raise or lower the signal
Calls of active or inactive are those of the source. Rule for the calls: active = hit-call score of the fitted dose curve at least 0.9, where 1 is the maximum; inactive = score below 0.9.
Please state which outcome applies, choosing from YES = active, NO = inactive

Known results for molecules:
Field: outcome | Entry: `COC(=O)c1ccc(C(=O)OC)cc1`
NO

Outcome logged for `O=C1OC2(c3ccc(O)cc3Oc3cc(O)ccc32)c2ccccc21` in this assay:
NO

Short answer needed: outcome of this test for `Nc1ccc(N)c([N+](=O)[O-])c1` ?
NO

Please let me know the test result on file for `CC(C)(CO)CO` .
NO

New cases:
State the result this test recorded for `CCCCN(CCO)CCO` .
NO

Recorded test call requested for `C[C@]12CC[C@@H]3c4ccc(O)cc4CC[C@H]3[C@@H]1CC[C@@H]2O`
YES

====

assay: CCTE_Simmons_CellTiterGLO_HEK293T: Viability Assessment in CCTE's Assays for Thyroperoxidase (TPO) Inhibition, Simmons Lab (AID 2283665)
Records with an inconclusive call do not appear. Active and inactive are the calls of the source. Rule for the calls: active = hit-call score of the fitted dose curve at least 0.9, where 1 is the maximum; inconclusive = response in the unintended direction; inactive = score below 0.9.
// allowed return values: T (active), F (inactive)

# fetch the recorded call for `O=C1OC2(c3ccc(O)cc3Oc3cc(O)ccc32)c2ccccc21` here
F

Could you kindly confirm the outcome this assay logged for `CCCCCCOc1ccc(O)cc1` ?
T

What outcome does the record of this test show for `CCCCCCCCOC(=O)c1ccc(O)cc1` ?
T

More entries:
For this compound, state the assay outcome: `c1ccc2scnc2c1`
F

====

test: ATG_TCF_b_cat_CIS: Attagene CIS-FACTORIAL HepG2 Assay for human T-Cell-Factor with beta-catenin (TCF/b-cat) (AID 2282965); settings: HepG2 TCF/beta-catenin cis-reporter transcription, actives raise or lower the signal
Active and inactive are the calls of the source. How the source made its calls: active means hit-call score of the fitted dose curve at least 0.9, where 1 is the maximum; inactive means score below 0.9.
# output must be one of active, inactive

Hello, I am checking results. What call was entered for `CN(C)C(=O)Nc1ccccc1` ?
inactive

Record request — test call for `CCOc1ccc(NC(C)=O)cc1`
inactive

Which outcome was assigned to `CC(C)N1C(=O)c2ccccc2C1=O` in this test?
inactive

Dear all, I need the recorded test outcome for `C=CCCCCCCCCC(=O)OCC` , thank you.
inactive

Lab log entry: `Cc1cc(O)c(C)c(C)c1O` — outcome as called in the assay?
inactive

For this compound, state the assay outcome: `C=C(C)C(=O)OCCN(C)C`
inactive

// outcome(item) with item = `C=CCOC(=O)/C=C\C(=O)OCC=C`
active

Could you check what this test reported for `Cc1ccc(C(C)(C)O)cc1` ?
inactive

Record request — test call for `NC(N)=S`
inactive

# fetch the recorded call for CCC(=O)OC(C)(C)C1CC=C(C)CC1 (stereo unspecified) here
inactive

Further cases:
# lookup: test call for `CCCCCC#CC(=O)OC`
inactive

====

test: ATG_TGFb_CIS: Attagene CIS-FACTORIAL HepG2 Assay for human Transforming Growth Factor (TGF) (AID 2282967); details: HepG2 Attagene CIS TGFb reporter, mRNA transcription; actives raise or lower the signal
The source made the active and inactive calls. Rule for the calls: active = hit-call score of the fitted dose curve at least 0.9, where 1 is the maximum; inactive = score below 0.9.
Please answer using one outcome listed in True for active, False for inactive

Field: example entries. Status: answers known.
Record lookup: outcome of this test for C=COCC1CCC(COC=C)CC1 (stereo not drawn) ?
False

Look up the recorded call for CCCC(O)C(CC)CO (stereo not drawn) in this test.
False

Please share the test call associated with `OCC=Cc1ccccc1` .
False

Per the records of this test, what outcome belongs to `CC(C)OB(OC(C)C)OC(C)C` ?
False

Answer briefly: the call reported for CC1=CC(C)C(C=O)C(C)C1 (stereo not drawn) (tested in a mixture with another compound) in this assay.
False

***
Give the logged outcome of this assay for the following compound: `CCCCCCCCCCCCCC(=O)OCC`
False

// param item: `OCCN1CCOCC1` ; yields the recorded call
False

I would be grateful if you could indicate the recorded call for `CC(C)N1C(=O)c2ccccc2C1=O` .
False
